Recorded values, source patent US4276297A.

- Tested on: gastric acid secretion
- Experimental details: Inhibition of pentagastrin-induced gastric acid secretion in fasted Heidenhain pouch dogs
- Format: in vivo
- Measurement conditions: Canis lupus familiaris, 1.5 h; 10 mg./kg., intravenous, 90 minutes after start of pentagastrin infusion; lowest acid output after drug vs mean acid output immediately prior; read-out: Acid Antisecretory Activity (% Inhibition)
Quick reference: inhibition in vivo at 10 mg/kg of the listed items.
Recorded metric: inhibition in vivo at 10 mg/kg (%)

CCCCCCNc1cc(-c2nc(N)n[nH]2)ccn1    40
Nc1n[nH]c(-c2ccnc(NCc3ccccc3)c2)n1    72
Nc1n[nH]c(-c2ccnc(NCCO)c2)n1    34
Nc1cc(-c2nc(N)n[nH]2)ccn1 [Example XVIII, monohydrate]    94
CN(C)c1cc(-c2nc(N)n[nH]2)ccn1    96
CCNc1cc(-c2nc(N)n[nH]2)ccn1    93
Nc1n[nH]c(-c2ccnc(NCc3ccc(Cl)cc3)c2)n1    62
CN(Cc1ccccc1)c1cc(-c2nc(N)n[nH]2)ccn1    25
CCCCCCCCCCNc1cc(-c2nc(N)n[nH]2)ccn1    14
Nc1n[nH]c(-c2ccnc(NCCc3ccccc3)c2)n1    50
